B1: TPR 5TU (parent)
chain: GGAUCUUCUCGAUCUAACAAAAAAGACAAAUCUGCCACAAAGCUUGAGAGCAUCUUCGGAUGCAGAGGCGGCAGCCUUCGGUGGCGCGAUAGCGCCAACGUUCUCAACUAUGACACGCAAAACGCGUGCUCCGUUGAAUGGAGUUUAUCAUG

Variants of: B1
Protocol Notes: polymerase ribozyme fitness, log enrichment relative to wild type (log ratio); higher = more active; in vitro selection for triplet polymerase activity
This sample holds only a part of the variants without activity.
Form field: polymerase ribozyme fitness (log ratio) (one value per entry).

{"Variant Annotation": "A19U A30U G62C G65C C96A", "polymerase ribozyme fitness (log ratio)": "≤ -4.2"}
{"Variant Annotation": "U33G G50A C93G G128A", "polymerase ribozyme fitness (log ratio)": "≤ -4.2"}
{"Variant Annotation": "U4C U15G U77A G92U C99G", "polymerase ribozyme fitness (log ratio)": "≤ -4.2"}
{"Variant Annotation": "A64C C69U G84A G136U G141U", "polymerase ribozyme fitness (log ratio)": "≤ -4.2"}
{"Variant Annotation": "C38G G71A U82G A107U", "polymerase ribozyme fitness (log ratio)": "≤ -4.2"}
{"Variant Annotation": "U45A A47C U61A G92A C114A C123G U146G", "polymerase ribozyme fitness (log ratio)": "≤ -4.2"}
{"Variant Annotation": "G50C A64C G80A A120C G128U", "polymerase ribozyme fitness (log ratio)": "≤ -4.2"}
{"Variant Annotation": "C57A U82A A121U G133C", "polymerase ribozyme fitness (log ratio)": -0.916}
{"Variant Annotation": "C36U A52G G70U G84A", "polymerase ribozyme fitness (log ratio)": -2.84}
{"Variant Annotation": "A20U A24G C32G U78A G83C", "polymerase ribozyme fitness (log ratio)": "≤ -4.2"}
{"Variant Annotation": "A49C C103A", "polymerase ribozyme fitness (log ratio)": -3.96}
{"Variant Annotation": "A3G A91U", "polymerase ribozyme fitness (log ratio)": "≤ -4.2"}
{"Variant Annotation": "C93U C116U", "polymerase ribozyme fitness (log ratio)": -0.9}
{"Variant Annotation": "G58A G86U A119U", "polymerase ribozyme fitness (log ratio)": -2.06}
{"Variant Annotation": "C63A C87A A91G", "polymerase ribozyme fitness (log ratio)": "≤ -4.2"}
{"Variant Annotation": "A20U U45A C118A", "polymerase ribozyme fitness (log ratio)": -3.82}
{"Variant Annotation": "U56A A91U C125U C132U G140A U148A", "polymerase ribozyme fitness (log ratio)": "≤ -4.2"}
{"Variant Annotation": "U53C C69U C75A C93U A115C", "polymerase ribozyme fitness (log ratio)": "≤ -4.2"}
